These entries and their values trace back to patent US9193722B2.

# target entity: PKC delta kinase (Homo sapiens, UniProt Q05655)
# Sequence (Q05655 whole entry): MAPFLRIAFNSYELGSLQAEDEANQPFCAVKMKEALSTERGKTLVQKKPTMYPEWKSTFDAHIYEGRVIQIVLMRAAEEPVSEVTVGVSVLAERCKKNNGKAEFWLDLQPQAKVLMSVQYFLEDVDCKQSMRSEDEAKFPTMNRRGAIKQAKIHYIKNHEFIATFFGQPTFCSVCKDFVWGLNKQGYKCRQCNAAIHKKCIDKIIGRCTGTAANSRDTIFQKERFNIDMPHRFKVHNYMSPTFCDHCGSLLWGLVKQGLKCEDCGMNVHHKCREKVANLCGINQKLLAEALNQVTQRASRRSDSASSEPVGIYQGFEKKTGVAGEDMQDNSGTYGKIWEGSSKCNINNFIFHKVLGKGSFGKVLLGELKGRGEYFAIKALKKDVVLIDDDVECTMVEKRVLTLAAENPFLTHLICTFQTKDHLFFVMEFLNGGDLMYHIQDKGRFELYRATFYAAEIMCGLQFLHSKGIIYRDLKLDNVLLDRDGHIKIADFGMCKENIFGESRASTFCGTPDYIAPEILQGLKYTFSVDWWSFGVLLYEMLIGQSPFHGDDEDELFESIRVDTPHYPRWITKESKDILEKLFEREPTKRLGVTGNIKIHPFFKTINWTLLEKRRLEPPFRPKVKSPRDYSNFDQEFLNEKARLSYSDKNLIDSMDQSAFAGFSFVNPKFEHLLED
# protocol: PKC delta kinase inhibition, coupled-enzyme (NADH absorbance) assay, Ki
# Assay type: biochemical
# experimental setup: 150 μM ATP, 46 nM PKC delta kinase, 30° C.; read-out: Ki PKC delta
pKi: −log10 of the molar value.
// reported pKi per item

Cc1cc(N2CCC(N)CC2)nc(-c2n[nH]c3ncccc23)c1Cl [Compound 109]; < 5.90
CC(C)C[C@@]1(O)CN(c2ccc(F)c(-c3n[nH]c4ncccc34)n2)CC[C@@H]1N [Compound 269]; > 6.30
CC(C)CC1(C)CN(c2ccc(C(F)(F)F)c(-c3n[nH]c4ncccc34)n2)CCN1 (stereo not shown) [Compound 82]; > 6.30
CCCC1(CN)CN(c2ccc(C(F)(F)F)c(-c3n[nH]c4ncccc34)n2)CCO1 (stereo not shown) [Compound 404]; > 6.30
CC(C)(F)C(C)(O)C1CN(c2ccc(F)c(-c3n[nH]c4ncccc34)n2)CCN1 (stereo not shown) [Compound 254]; > 7.30

Note down pKi recorded for CC1CN(c2ccc(C(F)(F)F)c(-c3n[nH]c4ncccc34)n2)CC1CN (stereo not shown) [Compound 332] < 5.90

Note down pKi recorded for CC(C)CC1(CO)CN(c2ccc(C(F)(F)F)c(-c3n[nH]c4ncccc34)n2)CCC1N (stereo not shown) [Compound 410] > 7.30

Note down pKi recorded for CC(C)CC1CN(c2ccc(F)c(-c3n[nH]c4ncccc34)n2)CCC1C#N (stereo not shown) [Compound 370] > 5.55

Note down pKi recorded for CC(F)(F)C(C)(O)C1CN(c2ccc(F)c(-c3n[nH]c4ncccc34)n2)CCN1 (stereo not shown) [Compound 286] > 6.30

Note down pKi recorded for CC(C)C(C)(O)C1CN(c2ccc(F)c(-c3n[nH]c4ncccc34)n2)CCN1 (stereo not shown) [Compound 200] < 5.90

Note down pKi recorded for CC(C)(C)C[C@H]1CN(c2ccc(F)c(-c3n[nH]c4ncccc34)n2)CCN1 [Compound 142] > 6.30

Note down pKi recorded for CC(C)C(N)[C@H]1CCCN(c2ccc(C(F)(F)F)c(-c3n[nH]c4ncccc34)n2)C1 (stereo partly shown) [Compound 265] > 6.30

Note down pKi recorded for CCNC(=O)CC1CN(c2ccc(C(F)(F)F)c(-c3n[nH]c4ncccc34)n2)CCN1 (stereo not shown) [Compound 212] < 5.90

Note down pKi recorded for CC(C)C[C@H]1CN(c2ccc(F)c(-c3n[nH]c4ncccc34)n2)C[C@H](C)N1 [Compound 182] < 5.90

Note down pKi recorded for CC(C)CC1(C)C=CCN(c2ccc(C(F)(F)F)c(-c3n[nH]c4ncccc34)n2)C1 (stereo not shown) [Compound 396] < 5.90

Note down pKi recorded for COc1cccc(C2CN(c3cccc(-c4n[nH]c5ncccc45)n3)CCN2)c1 (stereo not shown) [Compound 35] < 5.70

###

# target entity: PKC delta kinase (Homo sapiens, UniProt Q05655)
# protocol: PKC delta kinase inhibition, coupled-enzyme (NADH absorbance) assay, Ki
# Type: biochemical
# experimental setup: 150 μM ATP, 46 nM PKC delta kinase, 30° C.; read-out: Ki PKC delta
property: Ki

CC(C)(F)CC1CN(c2ccc(C(F)(F)F)c(-c3n[nH]c4ncccc34)n2)CCN1 (centres unmarked); > 1250 nM
Clc1ccc(N2CCNCC2)nc1-c1n[nH]c2ncccc12; < 2800 nM

Report measured Ki on PKC delta kinase (Homo sapiens, UniProt Q05655); entry: CC(C)C[C@H]1CN(c2ccc(F)c(-c3n[nH]c4ncccc34)n2)CC[C@@H]1O > 1250 nM

Report measured Ki on PKC delta kinase (Homo sapiens, UniProt Q05655); entry: CC(C)(N)C1CCCN(c2ccc(F)c(-c3n[nH]c4ncccc34)n2)C1 (centres unmarked) < 500 nM

Report measured Ki on PKC delta kinase (Homo sapiens, UniProt Q05655); entry: CCC[C@H]1CN(c2ccc(C(F)(F)F)c(-c3n[nH]c4ncccc34)n2)CC(F)(F)CN1 > 1250 nM

Report measured Ki on PKC delta kinase (Homo sapiens, UniProt Q05655); entry: CC(C)CC1(O)CN(c2ccc(C(F)(F)F)c(-c3n[nH]c4ncccc34)n2)CCC1C#N (centres unmarked) < 2800 nM

Report measured Ki on PKC delta kinase (Homo sapiens, UniProt Q05655); entry: CCCC1CN(c2ccc(C(F)(F)F)c(-c3n[nH]c4ncccc34)n2)CCN1 (centres unmarked) > 1250 nM

Report measured Ki on PKC delta kinase (Homo sapiens, UniProt Q05655); entry: CCCC1(C)CN(c2ccc(C(F)(F)F)c(-c3n[nH]c4ncccc34)n2)CCC1N (centres unmarked) < 500 nM

###

# target entity: PKC alpha kinase (Homo sapiens, UniProt P17252)
# protocol: PKC alpha kinase inhibition, coupled-enzyme (NADH absorbance) assay, Ki
# Assay type: biochemical
# experimental setup: 130 μM ATP, 4.5 nM PKC alpha kinase, 30° C.
// reported Ki per item

Some solved cases for reference:
CC(C)C[C@@H]1CC(F)(c2cccc(-c3n[nH]c4ncccc34)n2)CCN1 (some centres unmarked); > 1.25 µM
NC1CCN(c2ccc(C(F)(F)F)c(-c3n[nH]c4ncccc34)n2)CC12CCOCC2 (centres unmarked); > 1.25 µM
NC[C@H]1CCN(c2ccc(C(F)(F)F)c(-c3n[nH]c4ncccc34)n2)C1; > 1.25 µM
FC(F)(F)c1ccc(N2CCNC(c3cccc(Cl)c3)C2)nc1-c1n[nH]c2ncccc12 (centres unmarked); < 0.5 µM
CC(C)CC1(C)CN(c2cccc(-c3n[nH]c4ncccc34)n2)CCC1N (centres unmarked); < 0.5 µM
CC(C)CC(N)C1CCCN(c2ccc(F)c(-c3n[nH]c4ncccc34)n2)C1 (centres unmarked); > 1.25 µM

Note down Ki recorded for CC(C)C[C@H]1CN(c2cc(CO)cc(-c3n[nH]c4ncccc34)n2)CCN1 < 2.8 µM

###

// reported Ki per item
# target entity: PKC delta kinase (Homo sapiens, UniProt Q05655)
# protocol: PKC delta kinase inhibition, coupled-enzyme (NADH absorbance) assay, Ki
# Assay type: biochemical
# experimental setup: 150 μM ATP, 46 nM PKC delta kinase, 30° C.; read-out: Ki PKC delta

CC(C)C[C@H]1CN(c2cc(C(F)(F)F)cc(-c3n[nH]c4ncccc34)n2)CCN1 [Compound 57]; > 2000 nM
CC(C)CC1(CN)CCCN(c2ccc(F)c(-c3n[nH]c4ncccc34)n2)C1 (centres unmarked) [Compound 351]; < 2800 nM
CC(C)(O)C1CN(c2ccc(C(F)(F)F)c(-c3n[nH]c4ncccc34)n2)CCN1 (centres unmarked) [Compound 87]; > 2000 nM

Note down Ki recorded for Fc1ccc(N2CCC(F)CC2)nc1-c1n[nH]c2ncccc12 [Compound 267] > 1250 nM

Note down Ki recorded for c1cnc2[nH]nc(-c3nccc(N4CCNCC4)n3)c2c1 [Compound 81] > 2000 nM

Note down Ki recorded for CC(C)C(C)(O)C1CN(c2nc(-c3n[nH]c4ncccc34)ccc2F)CCN1 (centres unmarked) [Compound 376] < 500 nM

###

# target entity: PKC delta kinase (Homo sapiens, UniProt Q05655)
# protocol: PKC delta kinase inhibition, coupled-enzyme (NADH absorbance) assay, Ki
# Assay type: biochemical
# experimental setup: Ki PKC delta, 150 μM ATP, 46 nM PKC delta kinase, 30° C.
pKi: −log10 of the molar value.
property: pKi

Note down pKi recorded for Fc1ccc(N2CCNCC2)nc1-c1n[nH]c2ncccc12 [Compound 88] > 5.55

###

// Ki collected for PKC alpha kinase (Homo sapiens, UniProt P17252)

Some solved cases for reference:
CC(C)C(C)(O)C1CN(c2ccc(C(F)(F)F)c(-c3n[nH]c4ncccc34)n2)CCN1 (stereo not drawn); > 1.25 µM
CC[C@H]1CN(c2cccc(-c3n[nH]c4ncccc34)n2)C[C@H](CC(C)C)N1; > 1.25 µM
Cc1cccc(C2CN(c3ccc(C(F)(F)F)c(-c4n[nH]c5ncccc45)n3)CCN2)c1 (stereo not drawn); < 2.8 µM
CC(C)C[C@H]1CN(c2cncc(-c3n[nH]c4ncccc34)n2)CCN1; < 2.8 µM
CC1(N)CCCN(c2ccc(C(F)(F)F)c(-c3n[nH]c4ncccc34)n2)C1 (stereo not drawn); > 1.25 µM
CC(C)C[C@H]1CN(c2cccc(-c3n[nH]c4ncccc34)n2)CC[C@H]1O; > 1.25 µM
CC(C)C[C@@H]1CN(c2cccc(-c3n[nH]c4ncc(F)cc34)n2)CCN1; < 2.8 µM
C[C@@H]1CNCCN1c1cccc(-c2n[nH]c3ncccc23)n1; > 1.25 µM
CCC(C)(O)C1CN(c2cccc(-c3n[nH]c4ncccc34)n2)CCN1 (stereo not drawn); < 2.8 µM
CC(C)CC1(C#N)CN(c2ccc(C(F)(F)F)c(-c3n[nH]c4ncccc34)n2)C1; > 1.25 µM

Report measured Ki on PKC alpha kinase (Homo sapiens, UniProt P17252); entry: CC(C)C(O)(C1CN(c2ccc(F)c(-c3n[nH]c4ncccc34)n2)CCN1)C(F)(F)F (stereo not drawn) > 1.25 µM

Report measured Ki on PKC alpha kinase (Homo sapiens, UniProt P17252); entry: C=C(C)CC1CN(c2ccc(C(F)(F)F)c(-c3n[nH]c4ncccc34)n2)CCN1 (stereo not drawn) < 2.8 µM

Report measured Ki on PKC alpha kinase (Homo sapiens, UniProt P17252); entry: Cc1cc(C)c(CC2CN(c3cccc(-c4n[nH]c5ncccc45)n3)CCN2)c(C)c1 (stereo not drawn) > 1.25 µM

Report measured Ki on PKC alpha kinase (Homo sapiens, UniProt P17252); entry: FC(F)(F)C1CN(c2cccc(-c3n[nH]c4ncccc34)n2)CCN1 (stereo not drawn) > 1.25 µM

Report measured Ki on PKC alpha kinase (Homo sapiens, UniProt P17252); entry: CC(C)CC1(C)CN(c2ccc(Cl)c(-c3n[nH]c4ncccc34)n2)CCN1 (stereo not drawn) < 0.05 µM

Report measured Ki on PKC alpha kinase (Homo sapiens, UniProt P17252); entry: CN(C)CC1CCCN(c2ccc(F)c(-c3n[nH]c4ncccc34)n2)C1 (stereo not drawn) > 1.25 µM

Report measured Ki on PKC alpha kinase (Homo sapiens, UniProt P17252); entry: C=Cc1ccc(N2CCN[C@@H](CC(C)C)C2)nc1-c1n[nH]c2ncccc12 > 1.25 µM

Report measured Ki on PKC alpha kinase (Homo sapiens, UniProt P17252); entry: c1cc(-c2n[nH]c3ncccc23)nc(N2CCN[C@@H](CC3CC3)C2)c1 < 2.8 µM

Report measured Ki on PKC alpha kinase (Homo sapiens, UniProt P17252); entry: FC(F)(F)c1ccc(N2CCNC(c3cccc(Br)c3)C2)nc1-c1n[nH]c2ncccc12 (stereo not drawn) < 2.8 µM

Report measured Ki on PKC alpha kinase (Homo sapiens, UniProt P17252); entry: CC(C)C(N)[C@@H]1CCCN(c2ccc(F)c(-c3n[nH]c4ncccc34)n2)C1 (stereo partly drawn) > 1.25 µM

Report measured Ki on PKC alpha kinase (Homo sapiens, UniProt P17252); entry: NC[C@@H]1CCN(c2cc(C(F)(F)F)cc(-c3n[nH]c4ncccc34)n2)C1 > 1.25 µM

Report measured Ki on PKC alpha kinase (Homo sapiens, UniProt P17252); entry: CC(C)CC1(C#N)CCN(c2ccc(F)c(-c3n[nH]c4ncccc34)n2)CC1 > 1.25 µM

Report measured Ki on PKC alpha kinase (Homo sapiens, UniProt P17252); entry: CC(C)C[C@H]1CN(c2ccc(F)c(-c3n[nH]c4ncccc34)n2)CC[C@H]1N < 0.5 µM

Report measured Ki on PKC alpha kinase (Homo sapiens, UniProt P17252); entry: CC1(C)CN(c2ccc(C(F)(F)F)c(-c3n[nH]c4ncccc34)n2)CCC1N (stereo not drawn) > 1.25 µM

Report measured Ki on PKC alpha kinase (Homo sapiens, UniProt P17252); entry: CCC[C@@H]1CN(c2cccc(-c3n[nH]c4ncccc34)n2)C[C@H](CC(C)C)N1 < 2.8 µM

Report measured Ki on PKC alpha kinase (Homo sapiens, UniProt P17252); entry: c1cc(-c2n[nH]c3ncccc23)nc(N2CCNC3(CCC3)C2)c1 < 0.5 µM

Report measured Ki on PKC alpha kinase (Homo sapiens, UniProt P17252); entry: CC(C)C(N)C1CN(c2ccc(F)c(-c3n[nH]c4ncccc34)n2)CCO1 (stereo not drawn) > 1.25 µM

Report measured Ki on PKC alpha kinase (Homo sapiens, UniProt P17252); entry: CC(C)C(C)(O)C1CN(c2nc(-c3n[nH]c4ncccc34)ccc2F)CCN1 (stereo not drawn) [Compound 328] < 0.5 µM
